measured on: UniProt:P00533
Sequence (P00533 25-1210): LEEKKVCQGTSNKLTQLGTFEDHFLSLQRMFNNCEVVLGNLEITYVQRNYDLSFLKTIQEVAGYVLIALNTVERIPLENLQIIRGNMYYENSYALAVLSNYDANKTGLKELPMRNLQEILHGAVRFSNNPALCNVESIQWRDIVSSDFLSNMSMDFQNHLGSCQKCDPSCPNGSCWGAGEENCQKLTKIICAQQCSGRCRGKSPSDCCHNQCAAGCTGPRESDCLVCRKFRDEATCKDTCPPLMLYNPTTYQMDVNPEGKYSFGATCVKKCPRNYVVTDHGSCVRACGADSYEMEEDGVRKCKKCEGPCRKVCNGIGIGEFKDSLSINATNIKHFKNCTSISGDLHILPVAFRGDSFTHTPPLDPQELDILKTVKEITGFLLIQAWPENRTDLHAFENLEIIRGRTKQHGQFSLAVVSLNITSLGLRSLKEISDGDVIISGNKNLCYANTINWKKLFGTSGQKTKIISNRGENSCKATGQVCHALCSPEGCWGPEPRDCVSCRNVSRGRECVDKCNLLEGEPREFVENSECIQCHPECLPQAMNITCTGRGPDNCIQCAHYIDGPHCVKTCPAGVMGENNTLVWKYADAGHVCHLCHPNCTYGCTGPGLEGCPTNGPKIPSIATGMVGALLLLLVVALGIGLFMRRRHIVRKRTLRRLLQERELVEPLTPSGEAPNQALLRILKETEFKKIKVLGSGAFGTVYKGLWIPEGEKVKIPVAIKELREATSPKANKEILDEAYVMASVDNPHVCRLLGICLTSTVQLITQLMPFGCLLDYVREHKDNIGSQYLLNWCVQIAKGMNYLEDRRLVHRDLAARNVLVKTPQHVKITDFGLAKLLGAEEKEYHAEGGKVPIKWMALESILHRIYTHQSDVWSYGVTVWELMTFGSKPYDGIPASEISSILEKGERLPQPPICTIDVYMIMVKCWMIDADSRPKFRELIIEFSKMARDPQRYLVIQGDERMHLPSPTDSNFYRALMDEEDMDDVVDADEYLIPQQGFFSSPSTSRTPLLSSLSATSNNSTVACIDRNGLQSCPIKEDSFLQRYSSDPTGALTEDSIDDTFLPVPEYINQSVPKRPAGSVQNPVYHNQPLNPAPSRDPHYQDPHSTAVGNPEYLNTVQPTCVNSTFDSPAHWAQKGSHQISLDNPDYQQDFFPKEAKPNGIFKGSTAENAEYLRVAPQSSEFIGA
measurement notes: EGFR assay (cellular ELISA, NIH 3T3/C7 cells)
Type: cell-based
Design: expressed in transfected cells; host or cells: NIH 3T3/C7
run parameters: read-out: cell EGF IC50
The following molecules are shown together with reported IC50 values.

Field: example entries. Status: answers known.
>  <compound>
COc1c(C(C)C)cc(/C=C2/C(=O)Nc3cc(N)ccc32)cc1C(C)C

>  <measured on>
UniProt:P00533

>  <IC50>
> 100 µM

$$$$
>  <compound>
O=C1Nc2ccc(Br)cc2/C1=C/c1cc2ccccc2[nH]1

>  <measured on>
UniProt:P00533

>  <IC50>
> 100 µM

$$$$

Known value: UniProt:P00533 IC50 of the molecule O=C(O)CCc1c(/C=C2\C(=O)Nc3cc(Cl)ccc32)[nH]c2c1CCCC2 equals > 100 µM

Known value: UniProt:P00533 IC50 of the molecule O=C(CCc1c(/C=C2\C(=O)Nc3ccccc32)[nH]c2c1CCCC2)NCCN1CCOCC1 equals > 100 µM

Known value: UniProt:P00533 IC50 of the molecule O=C1Nc2ccc(Cl)cc2/C1=C\c1ccc2c(c1)CCO2 equals > 100 µM

Known value: UniProt:P00533 IC50 of the molecule COc1ccc(C=C2C(=O)Nc3ccccc32)cc1-c1cccc(NC(C)=O)c1 equals > 100 µM

Known value: UniProt:P00533 IC50 of the molecule CCc1ccc2c(c1)/C(=C\c1cc(C(C)C)c(OC)c(C(C)C)c1)C(=O)N2 equals > 100 µM

Known value: UniProt:P00533 IC50 of the molecule COc1ccc(/C=C2/C(=O)Nc3ccccc32)cc1C(C)C equals 40.4 µM

Known value: UniProt:P00533 IC50 of the molecule COc1ccc(/C=C2/C(=O)Nc3ncccc32)cc1C(C)C equals > 100 µM
